- targetOfAssay: OleTLA (Lacicoccus alkaliphilus)
- experimentalProtocol: Substrate binding by isothermal titration calorimetry (ITC)
- experimentalContext: 10% (v/v) EtOH, pH 7.5, 25 °C
assayMetric: pKd
One number for each entry, as −log10 of the molar value.

Quick one: give measured pKd for CCCCCCCCCCCCCCCC(=O)O [C16FA, hexadecanoic acid] 5.90

====

- targetOfAssay: OleTLA (Lacicoccus alkaliphilus, UniProt A0A1M7CBV6)
- Sequence (A0A1M7CBV6 1-424): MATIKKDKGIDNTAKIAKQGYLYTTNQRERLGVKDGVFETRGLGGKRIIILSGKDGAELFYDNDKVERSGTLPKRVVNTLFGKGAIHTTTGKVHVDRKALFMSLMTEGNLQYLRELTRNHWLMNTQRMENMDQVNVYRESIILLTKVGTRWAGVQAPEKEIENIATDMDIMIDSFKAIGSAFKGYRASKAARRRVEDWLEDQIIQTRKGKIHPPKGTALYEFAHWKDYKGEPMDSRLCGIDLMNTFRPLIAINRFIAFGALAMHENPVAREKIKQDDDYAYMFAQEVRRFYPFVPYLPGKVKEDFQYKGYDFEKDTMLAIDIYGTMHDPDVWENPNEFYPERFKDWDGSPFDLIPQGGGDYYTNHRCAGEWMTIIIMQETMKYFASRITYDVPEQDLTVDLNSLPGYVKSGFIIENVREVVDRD
- experimentalProtocol: Equilibrium substrate binding by heme spectral change (absorbance at 390 nm)
- experimentalContext: buffer (0% (v/v) EtOH), read-out: Kd from absorbance changes at 390 nm
assayMetric: pKd
Answers are plain numbers, as −log10 of the molar value.

Provide one value: measured pKd of CCCCCCCCCCCCCCCC(=O)O [C16FA, hexadecanoic acid] 6.43
